Reference source for all entries: patent US10654884B2

# Target: human CD73 (Homo sapiens, UniProt P21589)
# Construct: purchased R&D Systems 5795-EN-010
# Assay summary: Inhibition of 5′-Nucleotidase Activity of CD73 (Assay 1)
# Format: biochemical
# Experimental parameters: human CD73 4 ng/ml, 50 μM CMP, 20 min at RT, malachite green readout; read-out: Assay 1: IC50, inhibition of 5′-nucleotidase activity of CD73
pIC50: −log10 of the molar value.
Reported property: pIC50

CC(C)(C)OC(=O)[C@@H](OC[C@H]1O[C@@H](n2cnc3c(N)nc(CN)nc32)[C@H](O)[C@@H]1O)P(=O)(O)O (single isomer, unassigned) [Example 55a]: < 6.00

State its pIC50 for this compound: O=C(O)C(OC[C@H]1O[C@@H](n2cnc3c(Nc4ccccc4)ncnc32)[C@H](O)[C@@H]1O)P(=O)(O)O (stereo partly drawn) 6.00 to 7.00

State its pIC50 for this compound: CCOC(=O)[C@H](OC[C@H]1C[C@@H](n2cnc3cccc(Cl)c3c2=O)[C@H](O)[C@@H]1O)P(=O)(O)O (single isomer, unassigned) 6.00 to 7.00

State its pIC50 for this compound: CCOC(=O)[C@@H](OC[C@H]1O[C@@H](n2cnc3c(N)nc(C4CC4)nc32)[C@H](O)[C@@H]1O)P(=O)(O)O (single isomer, unassigned) [Example 50a] < 6.00

State its pIC50 for this compound: CCOC(=O)[C@@H](OC[C@H]1C[C@@H](n2cnc3cccc(Cl)c3c2=O)[C@H](O)[C@@H]1O)P(=O)(O)O (single isomer, unassigned) [Example 70a] < 6.00

State its pIC50 for this compound: CCOC(=O)C(OC[C@H]1C[C@@H](n2nnc3c(N)nc(Cl)nc32)[C@H](O)[C@@H]1O)P(=O)(O)O (single isomer, unassigned) > 7.00

###

# Target: CD73 on U138 neuroglioma cells (Homo sapiens, UniProt P21589)
# Construct: U138 neuroglioma cells, which express CD73 on their surface; endogenous in cells; host or cells: U138 neuroglioma cells (ATCC)
# Assay summary: Inhibition of Ecto-5′-Nucleotidase Activity in U138 Neuroglioma Cells (Assay 2)
# Format: cell-based
# Experimental parameters: 50 μM CMP, 2 hr at 37° C., malachite green readout, read-out: Assay 2: IC50, inhibition of ecto-5′-nucleotidase activity in U138 neuroglioma cells
Reported property: IC50

Use these answered entries as a reference point.
Nc1nc(Cl)nc2c1ncn2[C@@H]1O[C@H](CO[C@@H](C(=O)OCc2ccccc2)P(=O)(O)O)[C@@H](O)[C@H]1O (single isomer, unassigned): < 100 nM
Cc1nnc(C(OC[C@H]2O[C@@H](n3cnc4c(N)nc(Cl)nc43)[C@H](O)[C@@H]2O)P(=O)(O)O)o1 (single isomer, unassigned) [Example 21]: 100 to 1000 nM

State its IC50 for this compound: CCOC(=O)[C@@H](OC[C@H]1O[C@@H](n2cnc3c(NC4CC4)nc(Cl)nc32)[C@H](O)[C@@H]1O)P(=O)(O)O (single isomer, unassigned) [Example 22a] 100 to 1000 nM

###

Reported IC50 values for a set of molecules
# Target: human CD73 (Homo sapiens)
# Construct: purchased R&D Systems 5795-EN-010
# Sequence (P21589 27-549): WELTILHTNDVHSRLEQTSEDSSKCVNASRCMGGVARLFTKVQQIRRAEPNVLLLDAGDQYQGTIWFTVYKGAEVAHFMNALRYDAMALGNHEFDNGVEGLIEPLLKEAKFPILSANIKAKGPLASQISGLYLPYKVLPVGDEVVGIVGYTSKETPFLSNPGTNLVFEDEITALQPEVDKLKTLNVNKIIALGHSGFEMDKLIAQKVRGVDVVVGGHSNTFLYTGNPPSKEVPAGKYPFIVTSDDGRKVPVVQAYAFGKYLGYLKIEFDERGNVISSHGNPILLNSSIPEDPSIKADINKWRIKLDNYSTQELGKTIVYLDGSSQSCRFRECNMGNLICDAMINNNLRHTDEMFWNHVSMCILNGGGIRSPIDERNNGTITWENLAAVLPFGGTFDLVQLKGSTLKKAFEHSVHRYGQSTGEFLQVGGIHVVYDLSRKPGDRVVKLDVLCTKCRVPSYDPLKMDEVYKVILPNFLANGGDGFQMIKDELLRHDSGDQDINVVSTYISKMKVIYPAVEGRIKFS
# Assay summary: Inhibition of 5′-Nucleotidase Activity of CD73 (Assay 1)
# Assay type: biochemical
# Experimental parameters: human CD73 4 ng/ml, 50 μM CMP, 20 min at RT, malachite green readout; read-out: Assay 1: IC50, inhibition of 5′-nucleotidase activity of CD73
# Description: Inhibition of 5′-Nucleotidase Activity of CD73 (Assay 1) Compounds of the present invention were tested for the ability to inhibit CD73 enzyme activity. Tested compounds were dissolved in DMSO (50× final concentration), and 3.2 μL of the solutions added to 96-well polystyrene plates. […] The mixture was agitated vigorously for 10 min at RT, and absorbance at 620 nm was determined on a microplate spectrophotometer. […]

Use these answered entries as a reference point.
CCNC(=O)C(OC[C@H]1O[C@@H](n2ccc(=O)n(C)c2=O)[C@H](O)[C@@H]1O)P(=O)(O)O (stereo partly drawn): > 1000 nM
CCOC(=O)[C@@H](OC[C@H]1O[C@@H](n2cnc3c(N)nc(C#N)nc32)[C@H](O)[C@@H]1O)P(=O)(O)O (single isomer, unassigned) [Example 45a]: 100 to 1000 nM
CC(C)(C)OC(=O)C(OC[C@H]1C[C@@H](n2cnc3c(N)nc(Cl)nc32)[C@H](O)[C@@H]1O)P(=O)(O)O (single isomer, unassigned) [Example 78a]: 100 to 1000 nM
CS(=O)(=O)C(OC[C@H]1O[C@@H](n2cnc3c(N)nc(Cl)nc32)[C@H](O)[C@@H]1O)P(=O)(O)O (single isomer, unassigned) [Example 10]: 100 to 1000 nM
CCOC(=O)[C@H](OC[C@H]1O[C@@H](n2cnc3c(N)nc(-c4ccccc4)nc32)[C@H](O)[C@@H]1O)P(=O)(O)O (single isomer, unassigned): < 100 nM

Next item in the queue.
State its IC50 for this molecule: CCOc1nc(Cl)nc2c1ncn2[C@@H]1O[C@H](COC(C(=O)O)P(=O)(O)O)[C@@H](O)[C@H]1O (stereo partly drawn) < 100 nM

###

# Target: human CD73 (Homo sapiens)
# Construct: purchased R&D Systems 5795-EN-010
# Assay summary: Inhibition of 5′-Nucleotidase Activity of CD73 (Assay 1)
# Assay type: biochemical
# Experimental parameters: human CD73 4 ng/ml, 50 μM CMP, 20 min at RT, malachite green readout; read-out: Assay 1: IC50, inhibition of 5′-nucleotidase activity of CD73
Reported property: IC50

State its IC50 for this compound: CC(C)(C)OC(=O)[C@H](OC[C@H]1O[C@@H](n2cnc3c(N)nc(C#N)nc32)[C@H](O)[C@@H]1O)P(=O)(O)O [Example 54a] 100 to 1000 nM

State its IC50 for this compound: Nc1nc(Cl)nc2c1ncn2[C@@H]1O[C@H](COC(COCc2ccccc2)(C(=O)O)C(=O)O)[C@@H](O)[C@H]1O < 100 nM

State its IC50 for this compound: CCNc1nc(Cl)nc2c1ncn2[C@@H]1O[C@H](CO[C@](C)(C(=O)OCC)P(=O)(O)O)[C@@H](O)[C@H]1O [Example 29a] 100 to 1000 nM

###

# Target: human CD73 (Homo sapiens, UniProt P21589)
# Construct: purchased R&D Systems 5795-EN-010
# Sequence (P21589 27-549): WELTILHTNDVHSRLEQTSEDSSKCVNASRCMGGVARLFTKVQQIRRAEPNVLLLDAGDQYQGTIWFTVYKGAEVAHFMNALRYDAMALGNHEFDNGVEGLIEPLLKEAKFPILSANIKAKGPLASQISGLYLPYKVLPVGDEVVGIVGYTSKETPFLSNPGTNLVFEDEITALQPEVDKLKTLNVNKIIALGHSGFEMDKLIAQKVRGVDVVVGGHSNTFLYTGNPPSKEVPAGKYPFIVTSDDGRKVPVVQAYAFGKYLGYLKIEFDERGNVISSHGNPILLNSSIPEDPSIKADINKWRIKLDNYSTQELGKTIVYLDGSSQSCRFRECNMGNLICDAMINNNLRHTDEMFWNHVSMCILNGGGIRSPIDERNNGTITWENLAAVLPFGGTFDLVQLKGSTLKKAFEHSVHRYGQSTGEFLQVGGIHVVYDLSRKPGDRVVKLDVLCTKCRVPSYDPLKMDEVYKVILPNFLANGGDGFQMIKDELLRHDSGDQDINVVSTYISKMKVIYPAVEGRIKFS
# Assay summary: Inhibition of 5′-Nucleotidase Activity of CD73 (Assay 1)
# Format: biochemical
# Experimental parameters: human CD73 4 ng/ml, 50 μM CMP, 20 min at RT, malachite green readout; read-out: Assay 1: IC50, inhibition of 5′-nucleotidase activity of CD73
pIC50: −log10 of the molar value.
Reported property: pIC50

O=C(O)C(OC[C@H]1O[C@@H](n2cnc3c(NO)nc(I)nc32)[C@H](O)[C@@H]1O)P(=O)(O)O (stereo partly drawn) [Example 59b]: > 7.00
O=C(O)C(OC[C@H]1O[C@@H](n2cnc3c(Cl)nc(Cl)nc32)[C@H](O)[C@@H]1O)P(=O)(O)O (stereo partly drawn) [Example 62]: > 7.00
CCCS(=O)(=O)[C@H](OC[C@H]1O[C@@H](n2cnc3c(N)nc(Cl)nc32)[C@H](O)[C@@H]1O)P(=O)(O)O (single isomer, unassigned) [Example 12]: > 7.00
CCOC(=O)[C@@H](OC[C@H]1C[C@@H](n2cnc3cccc(C#N)c3c2=O)[C@H](O)[C@@H]1O)P(=O)(O)O (single isomer, unassigned) [Example 73a]: < 6.00

# assay system human CD73 (Homo sapiens, UniProt P21589): give pIC50 of CCOC(=O)[C@H](OC[C@@H]1O[C@H](n2cnc3c(N)nc(C)nc32)[C@@H](O)[C@H]1O)P(=O)(O)O (single isomer, unassigned) [Example 37] > 7.00

# assay system human CD73 (Homo sapiens, UniProt P21589): give pIC50 of CCOC(=O)[C@@H](OC[C@H]1O[C@@H](n2cnc3c(N)nc(C(F)(F)F)nc32)[C@H](O)[C@@H]1O)P(=O)(O)O (single isomer, unassigned) [Example 42a] < 6.00

# assay system human CD73 (Homo sapiens, UniProt P21589): give pIC50 of CCOC(=O)[C@H](OC[C@H]1O[C@@H](n2cnc3c(N)nc(-c4ncco4)nc32)[C@H](O)[C@@H]1O)P(=O)(O)O (single isomer, unassigned) [Example 49] > 7.00

# assay system human CD73 (Homo sapiens, UniProt P21589): give pIC50 of CS(=O)(=O)c1ccccc1CC(OC[C@H]1O[C@@H](n2cnc3c(N)nc(Cl)nc32)[C@H](O)[C@@H]1O)(C(=O)O)C(=O)O [Example 86] > 7.00

# assay system human CD73 (Homo sapiens, UniProt P21589): give pIC50 of Nc1nc(I)nc2c1ncn2[C@@H]1O[C@H](CO[C@H](C(=O)O)P(=O)(O)O)[C@@H](O)[C@H]1O [Example 59] > 7.00

# assay system human CD73 (Homo sapiens, UniProt P21589): give pIC50 of COCC(OC[C@H]1O[C@@H](n2cnc3c(N)nc(Cl)nc32)[C@H](O)[C@@H]1O)(C(=O)O)C(=O)O [Example 5] > 7.00

# assay system human CD73 (Homo sapiens, UniProt P21589): give pIC50 of CC(C)(C)OC(=O)C(OC[C@H]1C[C@@H](n2cnc3c(N)nc(Cl)nc32)[C@H](O)[C@@H]1O)P(=O)(O)O (single isomer, unassigned) [Example 78] > 7.00

# assay system human CD73 (Homo sapiens, UniProt P21589): give pIC50 of Cn1c(=O)ccn([C@@H]2O[C@H](CO[C@H](C(=O)O)P(=O)(O)O)[C@@H](O)[C@H]2O)c1=O (single isomer, unassigned) [Example 60a] < 6.00
